- assay.notes: qHTS of pediatric cancer cell lines to identify multiple opportunities for drug repurposing: Primary screen for Saos-2 cells (AID 1347097); also: nearly all actives have a fitted effect of over 40% in size
- conditions: Saos-2 viability, CellTiter-Glo ATP luminescence, 48 h; series mostly up to 46 µM
Results filed as inconclusive are left out. Active and inactive are the calls of the source. Calls follow the shape of the dose curve; as a rule, active = well fitted cell-killing curve with a large enough effect; inconclusive = small, poorly fitted or top-dose-only effect; inactive = no such curve, though single readings can be large or run the other way.
Outcome codes: active, inactive

Nc1nc(=O)n([C@H]2C[C@H](O)[C@@H](CO)O2)cc1F
inactive
CC(C)c1cc(C(C)C)c(CC(=O)NS(=O)(=O)Oc2c(C(C)C)cccc2C(C)C)c(C(C)C)c1
active
C=C1C(=O)O[C@H]2[C@@H]1CCC(C)=CCC[C@@]1(C)O[C@@H]21
active
COC(=O)C=CC(=O)OC
inactive
C[C@@H](Cc1cc2c(c(C(N)=O)c1)N(CCCO)CC2)NCCOc1ccccc1OCC(F)(F)F
inactive

====

- assay.notes: Quantitative High-Throughput drug screen in 47 multiple myeloma cell lines against the NCATS MIPE library collection: FR4_PLB cell viability assay (AID 1918924; also: nearly all actives have a fitted effect of over 35% in size)
- conditions: FR4_PLB myeloma cells viability, CellTiter-Glo ATP, 48 h; series mostly up to 45.8 µM
Inconclusive results are not listed. Active and inactive are the calls of the source. The call rests on the fitted dose curve; in most records, active means well fitted cell-killing curve with a large enough effect; inconclusive means small, poorly fitted or top-dose-only effect, or effect the other way; inactive means no such curve, though single readings can be large or run the other way.
Classes used: true (1) for active, false (0) for inactive

COc1ccnc2[nH]cc(C(=O)C(=O)N3CCN(C(=O)c4ccccc4)C[C@@H]3C)c12
false (0)
O=c1c(O)c(-c2ccc(O)c(O)c2)oc2cc(O)ccc12
true (1)
CC(=O)O[C@H]1C[C@@H]2CC[C@H]3[C@H]4C[C@H]([N+]5(C)CCCCC5)[C@@H](OC(C)=O)[C@@]4(C)CC[C@@H]3[C@@]2(C)C[C@H]1[N+]1(C)CCCCC1
false (0)
CN[C@H](CC(C)C)C(=O)N[C@H]1C(=O)N[C@@H](CC(N)=O)C(=O)N[C@@H]2C(=O)N[C@H]3C(=O)N[C@H](C(=O)N[C@H](C(=O)O)c4cc(O)cc(O)c4-c4cc3ccc4O)[C@H](O)c3ccc(c(Cl)c3)Oc3cc2cc(c3O[C@@H]2O[C@H](CO)[C@@H](O)[C@H](O)[C@@H]2O[C@H]2C[C@](C)(N)[C@H](O)[C@H](C)O2)Oc2ccc(cc2Cl)[C@H]1O
false (0)
C[C@@H]1[C@H](C)CC[C@]2(C(=O)O)CC[C@]3(C)C(=CC[C@@H]4[C@@]5(C)C[C@@H](O)[C@H](O)[C@@](C)(CO)[C@H]5CC[C@]43C)[C@@H]12
false (0)

====

- assay.notes: Primary qHTS for inhibitors of nuclear receptor binding SET domain protein 2 (NSD2) in an isogenic RCH-ACV NSD2 p.E1099K mutant (9B) (AID 1645876); also: potency is read from the fitted curve at half-maximal effect; nearly all actives have a fitted effect of over 70% in size
- conditions: RCH-ACV (leukaemia line) NSD2 E1099K (9B) viability, CellTiter-Glo, 72 h; series mostly up to 44.9 µM
Records with an inconclusive call do not appear. Activity calls are given as the source filed them. Calls come from the whole dose curve; as a rule, active = well fitted inhibition curve with a large enough effect; inconclusive = small, poorly fitted or top-dose-only effect; inactive = flat fitted curve, though single readings scatter.
Entries and their measured Potency follow.
endpoint.name: Potency

O=C1CSC(=O)N1C(CCc1ccncc1)COc1ccc(-c2cccc([N+](=O)[O-])c2)cc1 (centres undefined)
14800 nM (active)
CN(C)c1ccc(C(=O)NCCCCCCC(=O)NO)cc1
525 nM (active)
Cc1cnc(NC(=O)Nc2cc(Br)c(C)cc2OC[C@@H]2CNCCO2)cn1
1050 nM (active)
Oc1ccc(-c2ccc(-c3cc(Nc4cccc(CNC5CC5)c4)n[nH]3)cc2)c(O)c1
1480 nM (active)

====

- assay.notes: Quantitative High-Throughput drug screen in 47 multiple myeloma cell lines against the NCATS MIPE library collection: OCIMY1_PLB cell viability assay (AID 1918979); also: nearly all actives have a fitted effect of over 35% in size;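 as to viability: 100% = DMSO-only wells and 0% = cell-free media-only wells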
- conditions: OCI-MY1 myeloma viability, CellTiter-Glo ATP, 48 h; series mostly up to 45.8 µM
Inconclusive results are not listed. Activity calls are given as the source filed them. The call rests on the fitted dose curve; in most records, active means well fitted cell-killing curve with a large enough effect; inconclusive means small, poorly fitted or top-dose-only effect, or effect the other way; inactive means no such curve, though single readings can be large or run the other way.
Possible outcomes: true (1) for active, false (0) for inactive

CC(=CC(=O)Nc1ccccc1C(=O)O)c1ccc2ccccc2c1
false (0)
CCOc1cc2c(c(F)c1OCC)C(=N)N(CC(=O)c1cc(N3CCOCC3)c(OC)c(C(C)(C)C)c1)C2
true (1)
O=C1NC(=O)C(=Cc2ccc3nccc(-c4ccncc4)c3c2)S1
true (1)
c1cncc(CN2CCC(n3ncc4c(N5CCOCC5)nc(-c5ccc6[nH]ccc6c5)nc43)CC2)c1
true (1)
CC(=O)C1=C(O)C=C2Oc3c(C(C)=O)c(O)c(C)c(O)c3C2(C)C1=O (centres undefined)
false (0)
COc1cc(C(C)C)c(Oc2cnc(NC(CO)CO)nc2N)cc1I
false (0)
CC(C)(C)[N+]([O-])=Cc1ccc(S(=O)(=O)O)cc1S(=O)(=O)O
false (0)
c1coc(CNc2ncnc3nc[nH]c23)c1
false (0)
CC(=O)O[C@H]1C[C@@H]2CC[C@H]3[C@H]4C[C@H]([N+]5(C)CCCCC5)[C@@H](OC(C)=O)[C@@]4(C)CC[C@@H]3[C@@]2(C)C[C@H]1N1CCCCC1
false (0)

====

- assay.notes: qHTS of pediatric cancer cell lines to identify multiple opportunities for drug repurposing: Primary screen for SK-N-MC cells (AID 1347093)
- conditions: SK-N-MC viability, CellTiter-Glo luminescence, 48 h; series mostly up to 46 µM
Results filed as inconclusive are left out. Active and inactive are the calls of the source. The call rests on the fitted dose curve; in most records, active means well fitted cell-killing curve with a large enough effect; inconclusive means small, poorly fitted or top-dose-only effect; inactive means no such curve, though single readings can be large or run the other way.
Possible outcomes: true for active, false for inactive

CCCCC(=O)O[C@]1(C(=O)CO)[C@@H](C)C[C@H]2[C@@H]3CCC4=CC(=O)C=C[C@]4(C)[C@@]3(F)[C@@H](O)C[C@@]21C
false
O=C(NC1CC1)c1cccc(-c2ccc3c(NC(=O)C4CC4)n[nH]c3c2)c1
true
Cc1ncc(-c2ccnc(Nc3ccc(S(C)(=O)=O)cc3)n2)n1C(C)C
true
CC(C)NC[C@@H](C(=O)N1CCN(c2ncnc3c2[C@H](C)C[C@H]3O)CC1)c1ccc(Cl)cc1
true

====

- assay.notes: qHTS of pediatric cancer cell lines to identify multiple opportunities for drug repurposing: Primary screen for RD cells (AID 1347104); also: nearly all actives have a fitted effect of over 55% in size; also: potency is read from the fitted curve at half-maximal effect
- conditions: RD rhabdomyosarcoma viability, CellTiter-Glo luminescence, 48 h; series mostly up to 46 µM
Results filed as inconclusive are left out. Calls of active or inactive are those of the source. Calls follow the shape of the dose curve; as a rule, active = well fitted cell-killing curve with a large enough effect; inconclusive = small, poorly fitted or top-dose-only effect; inactive = flat fitted curve, though single readings scatter. Residues, ends and D or L forms follow the SMILES beside them. *: point of attachment. Cbz = O=C(OCc1ccccc1)*
endpoint.name: Potency

COc1ccc2cc([S+]([O-])Cc3ncc(C)c(OC)c3C)nc2c1
inactive
Cc1nc(NC(=O)N2CCC[C@@H]2C(N)=O)sc1-c1ccnc(C(C)(C)C(F)(F)F)c1
372 nM (active)
CN[C@H]1[C@@H](O)[C@@H]2O[C@@H]3O[C@H](C)CC(=O)[C@]3(O)O[C@@H]2[C@@H](NC)[C@H]1O
590 nM (active)
COC[C@H](NC(=O)c1cnc(C)s1)C(=O)N[C@@H](COC)C(=O)N[C@@H](Cc1ccccc1)C(=O)[C@@]1(C)CO1
166 nM (active)
NC(=O)c1cccc(-c2cccc(OC(=O)NC3CCCCC3)c2)c1
inactive
CC(C)N1[N]C(=C2C=c3cc(O)ccc3=N2)c2c(N)ncnc21
1660 nM (active)
CCS(=O)(=O)Nc1ccc2[nH]c(O)c(C(=Nc3ccc(CN4CCCCC4)cc3)c3ccccc3)c2c1
469 nM (active)
CC(C)C[C@@H](C=O)NC(=O)[C@H](CC(C)C)NC(=O)[C@H](CC(C)C)NC(=O)OCc1ccccc1 (Cbz-Leu-Leu-Leu-aldehyde)
662 nM (active)

====

- assay.notes: qHTS of pediatric cancer cell lines to identify multiple opportunities for drug repurposing: Primary screen for BT-12 cells (AID 1347101); also: nearly all actives have a fitted effect of over 25% in size; also: potency is read from the fitted curve at half-maximal effect
- conditions: BT-12 viability, CellTiter-Glo luminescence, 48 h; series mostly up to 57.3 µM
Results filed as inconclusive are left out. Calls of active or inactive are those of the source. The call rests on the fitted dose curve; in most records, active means well fitted cell-killing curve with a large enough effect; inconclusive means small, poorly fitted or top-dose-only effect; inactive means flat fitted curve, though single readings scatter. Positions of bridges follow the written chain, without caps; N, C: chain ends. Non-standard residues stand in square brackets, D forms with d. Residues, ends and D or L forms follow the SMILES beside them. ξ: configuration not given here. *: point of attachment. Octanoyl(6-Me) = CCC(C)CCCCC(=O)*; ξThr(3R) = C[C@@H](O)C(N)C(=O)O; dDab = NCC[C@@H](N)C(=O)O; Dab = NCC[C@H](N)C(=O)O
endpoint.name: Potency

FC(F)c1nc2ccccc2n1-c1nc(N2CCOCC2)nc(N2CCOCC2)n1
1220 nM (active)
CCC(C)CCCCC(=O)N[C@@H](CCN)C(=O)NC(C(=O)N[C@H](CCN)C(=O)N[C@@H]1CCNC(=O)C([C@@H](C)O)NC(=O)[C@@H](CCN)NC(=O)[C@@H](CCN)NC(=O)[C@@H](CC(C)C)NC(=O)[C@H](Cc2ccccc2)NC(=O)[C@H](CCN)NC1=O)[C@@H](C)O (stereo partly drawn) ({Octanoyl(6-Me)}-[Dab][ξThr(3R)][dDab][dDab][Dab]F[dL][dDab][dDab][ξThr(3R)]; lactam 4-C)
inactive
CO[C@@H]1[C@@H](O)[C@H](O)[C@@H](n2c3c(Cl)cccc3c3c4c(c5c6cccc(Cl)c6[nH]c5c32)C(=O)NC4=O)O[C@@H]1CO
1370 nM (active)
CN[C@H](CC(C)C)C(=O)N[C@H]1C(=O)N[C@@H](CC(N)=O)C(=O)N[C@@H]2C(=O)N[C@H]3C(=O)N[C@H](C(=O)N[C@H](C(=O)O)c4cc(O)cc(O)c4-c4cc3ccc4O)[C@H](O)c3ccc(c(Cl)c3)Oc3cc2cc(c3O[C@@H]2O[C@H](CO)[C@@H](O)[C@H](O)[C@@H]2O[C@H]2C[C@](C)(N)[C@H](O)[C@H](C)O2)Oc2ccc(cc2Cl)[C@H]1O
inactive
CN1C(C(=O)Nc2ccccn2)=C(O)c2sc(Cl)cc2S1(=O)=O
inactive
COc1cccc2c1C(=O)c1c(O)c3c(c(O)c1C2=O)C[C@@](O)(C(=O)CO)C[C@H]3O[C@H]1C[C@H](N)[C@H](O)[C@H](C)O1
485 nM (active)
